molecular target: Left-right determination factor 2 (Homo sapiens); assay: LEFTY2 binders on small-molecule microarrays, primary screen, biochemical, small-molecule microarray, 635 nm fluorescence scan (AID 1110); settings: LEFTY2 binding, higher = more signal
MEASURED PARAMETER: composite z-score
Output: the number by itself.

Ask | Left-right determination factor 2 (Homo sapiens) / composite z-score / O=C1O[C@@H](c2ccccc2)[C@@H](c2ccccc2)N2[C@@H](c3ccc(O)cc3)[C@]3(C(=O)Nc4ccc(C#CC5=CCCCC5)cc43)[C@@H](C(=O)N3CCN(c4ncccn4)CC3)[C@H]12 : value?
Reply | 0.333

Ask | Can you check C=CCC(OC(C)=O)[C@@H]1[C@@H](N(Cc2cc3ccccc3o2)C(=O)Cc2ccc(F)cc2)c2cc(OCCCO)ccc2N1C(=O)c1ccc2ccccc2n1 (stereo partly drawn) next?
Reply | -0.139

Ask | Can you check COc1ccc([Si](C)(C)[C@H]2[C@H](CCO)O[C@@]3(C(=O)N(Cc4cccc(N5CCCCC5=O)c4)c4ccccc43)[C@@H]2C)cc1 next?
Reply | 1

###

Kindly supply the reported composite z-score values for the records listed here.
target: E3 ubiquitin-protein ligase XIAP (Homo sapiens); assay: XIAP binders, primary screen, biophysical, small-molecule microarray, fluorescence 635 nm (AID 1181); settings: small-molecule microarray binding, higher = more signal;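 also: score merges 667 nm emission and signal to noise over triplicate slides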

Ask | Looking for the measured composite z-score of C[n+]1ccc(CCCO)cc1 , can you help?
Reply | 0.769

Ask | Can you check COCC(=C=CC[C@H](O)c1cccc(OCCO)c1)C[C@H](O)c1ccccn1 next?
Reply | -0.0453

Ask | Can you check CC(C)C(=C=CC[C@H](O)c1ccc(OCCO)cc1)C[C@H](O)c1cc(Cl)cc(Cl)c1O next?
Reply | 0.0338

Ask | Can you check C=CCC(OC(C)=O)[C@@H]1[C@@H](N(Cc2cc3ccccc3o2)C(=O)c2ccc(C)cc2)c2cc(OCCCO)ccc2N1C(=O)Cc1ccc2ccccc2c1 (stereo partly specified) next?
Reply | 0.162

Ask | Can you check O=C1c2ccccc2[C@](Cc2ccccc2I)(C(=O)NCCN2CCOCC2)[C@H](c2ccc(CO)cc2)N1Cc1ccccc1 next?
Reply | 0.0904

Ask | Can you check COCCCNC(=O)[C@@]1(Sc2ccc(C)cc2)CC(=O)N(Cc2cc(C(F)(F)F)cc(C(F)(F)F)c2)[C@@H]1c1ccc(CO)cc1 next?
Reply | -0.0571

Ask | Can you check CN1C(=O)C2C=CC(C(O)C3CCCCC3)N(N3CCCCC3)C2C1=O (stereo unspecified) next?
Reply | -0.0548

Ask | Can you check CC(C)N1CC=CC23O[C@@H]4C=CCOC(=O)[C@@H]4[C@H]2C(=O)N(C(C)CO)[C@@H]3C1=O (stereo partly specified) next?
Reply | 0.226

Ask | Can you check CCOC(=CC(=O)OC)CC(O)c1cccc(Cl)c1 (stereo unspecified) next?
Reply | -0.0091

Ask | Can you check CCOC(=O)C[C@H]1[C@H](OC(=O)c2ccccc2-c2ccccc2)[C@@H](NC(=O)CC(C)C)c2cc(OCCCO)ccc2N1C(=O)c1ccc2ccccc2n1 next?
Reply | 0.0993

Ask | Can you check CCCCN1CC=CC23O[C@@H]4C=CCOC(=O)[C@@H]4[C@H]2C(=O)N(CCCO)[C@@H]3C1=O (stereo partly specified) next?
Reply | 0.106

Ask | Can you check C=CC[C@@H](OC(=O)Nc1ccc(OC)cc1)c1ccc(OCCO)cc1 next?
Reply | 0.206

Ask | Can you check COc1ccc(C#Cc2ccc3c(c2)[C@]2(C(=O)N3)[C@H](C(=O)N3CCc4cc(OC)c(OC)cc4C3)[C@H]3C(=O)O[C@H](c4ccccc4)[C@H](c4ccccc4)N3[C@@H]2c2ccc(O)cc2)cc1 next?
Reply | -0.277

Ask | Can you check COCCOC(=O)N1C(=O)[C@@]2(c3ccccc31)[C@H](C(=O)N1CCN(c3ncccn3)CC1)[C@H]1C(=O)O[C@H](c3ccccc3)[C@H](c3ccccc3)N1[C@@H]2c1ccc(OCCO)cc1 next?
Reply | 0.0924

Ask | Can you check CN(C)CCCNC(=O)[C@@]1(C)c2ccccc2C(=O)N(Cc2cc(C(F)(F)F)cc(C(F)(F)F)c2)[C@H]1c1ccc(CO)cc1 next?
Reply | -0.239

Ask | Can you check CCOC(=O)C1=CC[C@@H](c2ccccc2C(F)(F)F)N(S(=O)(=O)c2ccc(C)cc2)C1 next?
Reply | -0.12

###

molecular target: Neurogenic locus notch homolog protein 3 (Homo sapiens) (UniProt Q9UM47); experiment: NOTCH3 binders on small-molecule microarray, primary screen, biochemical, 635/667 nm fluorescence (AID 1096); settings: NOTCH3 binding, 635 nm fluorescence, higher = more signal
Sequence (Q9UM47 whole entry, looked up): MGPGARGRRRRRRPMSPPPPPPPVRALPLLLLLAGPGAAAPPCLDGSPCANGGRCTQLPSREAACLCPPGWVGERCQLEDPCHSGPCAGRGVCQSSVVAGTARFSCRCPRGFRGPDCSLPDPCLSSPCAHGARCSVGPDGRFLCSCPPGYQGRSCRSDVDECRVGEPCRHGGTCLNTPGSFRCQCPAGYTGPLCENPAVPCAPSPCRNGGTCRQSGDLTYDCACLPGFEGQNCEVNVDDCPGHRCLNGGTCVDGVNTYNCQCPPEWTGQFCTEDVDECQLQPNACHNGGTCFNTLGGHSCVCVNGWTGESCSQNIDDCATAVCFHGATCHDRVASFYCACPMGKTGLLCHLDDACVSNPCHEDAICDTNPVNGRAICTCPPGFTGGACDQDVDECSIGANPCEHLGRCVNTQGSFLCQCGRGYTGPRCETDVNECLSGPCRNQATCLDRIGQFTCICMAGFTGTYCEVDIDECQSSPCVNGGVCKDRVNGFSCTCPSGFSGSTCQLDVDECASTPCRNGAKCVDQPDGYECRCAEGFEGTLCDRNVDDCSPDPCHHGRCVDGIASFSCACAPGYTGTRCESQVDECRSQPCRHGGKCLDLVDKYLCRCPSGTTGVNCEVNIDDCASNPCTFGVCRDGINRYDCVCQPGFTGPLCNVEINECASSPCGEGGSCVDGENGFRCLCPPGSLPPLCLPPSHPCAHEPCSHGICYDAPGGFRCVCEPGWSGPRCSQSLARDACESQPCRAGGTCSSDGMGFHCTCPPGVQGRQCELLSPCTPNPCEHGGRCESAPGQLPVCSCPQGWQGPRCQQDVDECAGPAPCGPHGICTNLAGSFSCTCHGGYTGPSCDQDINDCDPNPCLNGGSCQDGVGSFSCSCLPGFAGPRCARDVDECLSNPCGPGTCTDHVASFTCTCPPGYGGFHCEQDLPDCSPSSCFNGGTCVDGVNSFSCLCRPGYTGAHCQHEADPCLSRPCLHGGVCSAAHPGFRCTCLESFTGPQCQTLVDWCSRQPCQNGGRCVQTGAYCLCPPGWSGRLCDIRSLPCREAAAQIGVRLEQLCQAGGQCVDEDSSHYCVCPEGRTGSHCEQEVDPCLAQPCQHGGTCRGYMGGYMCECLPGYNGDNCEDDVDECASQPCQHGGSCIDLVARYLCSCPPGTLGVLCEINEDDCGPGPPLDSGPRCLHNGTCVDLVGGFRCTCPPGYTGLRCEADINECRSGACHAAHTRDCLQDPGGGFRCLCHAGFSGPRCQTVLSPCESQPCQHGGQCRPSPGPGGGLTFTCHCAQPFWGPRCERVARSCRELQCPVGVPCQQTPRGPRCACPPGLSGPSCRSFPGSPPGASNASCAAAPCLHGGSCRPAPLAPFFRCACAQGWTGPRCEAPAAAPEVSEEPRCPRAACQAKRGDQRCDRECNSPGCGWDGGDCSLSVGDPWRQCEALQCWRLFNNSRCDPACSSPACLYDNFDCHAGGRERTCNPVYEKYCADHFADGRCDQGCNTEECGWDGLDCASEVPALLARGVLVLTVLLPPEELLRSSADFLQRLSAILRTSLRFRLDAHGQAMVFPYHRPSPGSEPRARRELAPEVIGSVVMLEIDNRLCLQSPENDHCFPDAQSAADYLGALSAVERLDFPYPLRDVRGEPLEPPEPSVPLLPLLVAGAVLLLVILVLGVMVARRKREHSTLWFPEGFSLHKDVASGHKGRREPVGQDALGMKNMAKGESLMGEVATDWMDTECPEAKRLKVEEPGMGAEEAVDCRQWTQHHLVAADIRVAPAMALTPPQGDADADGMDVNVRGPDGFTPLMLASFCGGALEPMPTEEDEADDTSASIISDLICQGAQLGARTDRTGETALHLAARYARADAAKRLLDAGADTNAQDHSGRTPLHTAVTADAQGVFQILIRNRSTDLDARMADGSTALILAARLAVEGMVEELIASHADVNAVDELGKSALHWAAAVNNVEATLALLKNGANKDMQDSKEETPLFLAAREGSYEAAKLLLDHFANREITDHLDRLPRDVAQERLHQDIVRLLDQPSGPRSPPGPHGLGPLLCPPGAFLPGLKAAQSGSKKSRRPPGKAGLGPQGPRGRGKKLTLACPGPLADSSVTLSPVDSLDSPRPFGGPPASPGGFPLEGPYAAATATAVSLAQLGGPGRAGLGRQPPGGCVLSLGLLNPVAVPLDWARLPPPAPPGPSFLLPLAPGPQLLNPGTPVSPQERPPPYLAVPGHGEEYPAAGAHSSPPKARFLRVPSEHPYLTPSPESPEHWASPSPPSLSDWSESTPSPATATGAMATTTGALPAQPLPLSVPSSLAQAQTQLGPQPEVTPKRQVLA
Kindly supply the reported composite z-score values for the records listed here.

Ask | Looking for the measured composite z-score of CCC[C@@H]1C[C@@]1(CCC)[C@@H](NP(=O)(c1ccccc1)c1ccccc1)c1ccc(Cl)cc1 , can you help?
Reply | -0.151

Ask | Can you check O=C1OCC=C[C@H]2OC34C=CCN(c5ccc(Cl)cc5)C(=O)[C@H]3N(CCCCCO)C(=O)[C@@H]4[C@@H]12 (stereo partly specified) next?
Reply | -0.68

Ask | Can you check CC=CC(O)C1C=CC2C(=O)N(C)C(=O)C2N1N1CCCCC1 (stereo unspecified) next?
Reply | 1.09

Ask | Can you check [N-]=[N+]=Nc1ccccc1C[C@@]1(C(=O)O)N=C(c2ccc(OCCCO)cc2)O[C@@H]1c1ccccc1 next?
Reply | 0.697

Ask | Can you check NC(=O)N1C(=O)C2C(C1=O)C1C=C(c3ccc(CO)cc3)C2C(C2CC2)N1Cc1sc2ccccc2c1Cl (stereo unspecified) next?
Reply | 1.06

Ask | Can you check CCCC[C@@H]1C[C@H]1[C@@H](NC(=O)c1cccnc1)c1ccc(-c2ccccc2)cc1 next?
Reply | -0.476

###

assay: MM1S cell viability effects, profiling panel, calcein-AM fluorescence, 48 h, basal (AID 1165); conditions: higher = more signal;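 also: viability of MM1S multiple myeloma cells under basal unstimulated conditions; test concentration not given here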
MEASURED PARAMETER: z-score
Output: the number by itself.

Ask | Looking for the measured z-score of COc1cc2c(cc1OC)CN(C(=O)[C@H]1[C@@H]3C(=O)O[C@@H](c4ccccc4)[C@@H](c4ccccc4)N3[C@@H](c3ccc(OCCO)cc3)[C@]13C(=O)Nc1ccc(C#CC4(O)CCCCCC4)cc13)CC2 , can you help?
Reply | 0.217

Ask | Can you check COc1cc2c(cc1OC)CN(C(=O)[C@H]1[C@@H]3C(=O)O[C@@H](c4ccccc4)[C@@H](c4ccccc4)N3[C@@H](c3ccc(OCCO)cc3)[C@]13C(=O)Nc1ccc(C#CCCO)cc13)CC2 next?
Reply | -0.0509

Ask | Can you check C=C[C@H](COC(C)=O)NS(=O)(=O)c1ccc(Br)cc1 next?
Reply | 0.661

Ask | Can you check O=C1NC(=O)C2C1C=CC(C(O)c1ccc(Br)cc1)N2Nc1ccccn1 (centres undefined) next?
Reply | -0.0483

Ask | Can you check COc1ccc([Si](C)(C)[C@@H]2[C@@H](CCn3cc([C@H](O)c4ccccc4)nn3)O[C@]3(C(=O)N(Cc4ccc(N5CCOC5=O)cc4)c4ccccc43)[C@H]2C)cc1 next?
Reply | -1.06

Ask | Can you check O=C1NCC(=O)N2[C@@H]1C[C@@H](C(=O)O)[C@H]2c1ccc(O)cc1 next?
Reply | -2.79

Ask | Can you check C[C@]1(C(=O)O)c2ccccc2C(=O)N(Cc2ccccc2)[C@H]1c1ccc(CO)cc1 next?
Reply | 0.132

Ask | Can you check CN1C(=O)C2C(C1=O)C1C=C(c3ccc(CO)cc3)C2C(c2cccs2)N1Cc1cccc(OC(F)(F)F)c1 (centres undefined) next?
Reply | -0.314

Ask | Can you check C[C@H]1C2=C3C(CC[C@H]4C(OCc5ccc(F)cc5C(F)(F)F)OC[C@](C)([C@@H]34)N(C(=O)OC(C)(C)C)C2)C2COC(=O)OCC21 (some centres undefined) next?
Reply | -2.6

###

Kindly supply the reported composite z-score values for the records listed here.
assay: small-molecule binders of probe aNOTCH3, primary screen, biochemical, small-molecule microarray, 635/667 nm fluorescence (AID 1120); details: higher = more signal;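 also: probe is a biotin-tagged antibody raised against NOTCH3 rather than NOTCH3 protein; score merges spot fluorescence near 667 nm with spot signal to noise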
Output: the number by itself.

Ask | Looking for the measured composite z-score of COC(=O)[C@@]1(Cc2ccc(OC)cc2)[C@H]2c3cc(C(=O)N(C)C)n(CCc4c[nH]c5ccc(O)cc45)c3C[C@H]2CN1C(=O)c1ccccc1 , can you help?
Reply | 0.403

Ask | Can you check O=C1NC(=O)C2C1C=CC(C(O)c1cc(C(F)(F)F)cc(C(F)(F)F)c1)N2Nc1ccc(Cl)cc1Cl (stereo not given) next?
Reply | 0.0833

Ask | Can you check CC[C@@H]1[C@H]2C3C(=O)N(CC)C(=O)C3CC(=O)[C@H]2[C@H](c2ccc(C)cc2)N1S(=O)(=O)c1ccc(C)cc1 (stereo not given in full) next?
Reply | 0.0271

Ask | Can you check CC(C)C(O)C1C=CC2C(=O)N(C)C(=O)C2N1N(c1ccccc1)c1ccccc1 (stereo not given) next?
Reply | -0.047

Ask | Can you check NCCCCCNC(=O)[C@@H]1C[C@@H]2C(=O)N[C@@H](CCCCN)C(=O)N2[C@@H]1c1cccc(OCCO)c1 next?
Reply | -0.0168

Ask | Can you check CCOC(=O)C1=CC[C@@H](c2cc(Cl)ccc2Cl)N(S(=O)(=O)c2ccc(C)cc2)[C@H]1c1ccc(OC)cc1 next?
Reply | 0.258

Ask | Can you check CC[C@H]1C2=C3C(CC[C@H]4C(OCc5ccc(F)cc5C(F)(F)F)OC[C@](C)([C@@H]34)N(C(=O)OC(C)(C)C)C2)C2COC(=O)OCC21 (stereo not given in full) next?
Reply | 0.367

Ask | Can you check O=C1C[C@]2(c3ccc([N+](=O)[O-])cc3)C(=O)N(Cc3ccccc3)c3cc(CO)ccc3[C@H]2N1CC12CC3CC(CC(C3)C1)C2 next?
Reply | -0.356

Ask | Can you check CC(C)(C)OC(=O)CC[C@@]1(C(=O)O)N=C(c2ccc(OCCCO)cc2)O[C@@H]1c1ccccc1CN=[N+]=[N-] next?
Reply | 0.1

Ask | Can you check C=CCN1C(=O)[C@@]2(O[C@@H](CCO)[C@H]([Si](C)(C)c3ccc(OC)cc3)[C@H]2C)c2cc(N3C(=O)c4ccccc4Oc4ccccc43)ccc21 next?
Reply | -0.145

Ask | Can you check COc1ccc(NN2C(C(O)c3ccccn3)C=CC3C(=O)N(C4CCCCC4)C(=O)C32)cc1 (stereo not given) next?
Reply | 0.263

Ask | Can you check COc1cc(OC)c(C(O)C2C=CC3C(=O)N(c4ccccc4)C(=O)C3N2Nc2ccc(C#N)cc2)cc1Br (stereo not given) next?
Reply | 0.334

Ask | Can you check O=C(NC1CC1)[C@@H]1c2ccccc2C(=O)N(Cc2ccccc2)[C@H]1c1ccc(CO)cc1 next?
Reply | -0.272

Ask | Can you check CC(C)CN1C(=O)[C@@]2(c3ccc([N+](=O)[O-])cc3)CC(=O)N(CC34CC5CC(CC(C5)C3)C4)[C@@H]2c2ccc(CO)cc21 next?
Reply | -0.0016

Ask | Can you check CC(C)(C)N1CC=CC23O[C@@H]4C=CCOC(=O)[C@@H]4[C@H]2C(=O)N(CCCO)[C@@H]3C1=O (stereo not given in full) next?
Reply | -0.478
